Experimental system: hITK enzyme (FLAG-tagged full-length hITK) (Homo sapiens)
Construct: strongly expressing FLAG-tagged full-length hITK in Sf9 cells; FLAG; made in house; host or cells: Sf9 insect cells (ITK); Escherichia coli (GST-SLP76 substrate)
Method notes: ITK inhibitory activity (HTRF kinase assay, biotinylated GST-SLP76 substrate)
Type: biochemical
Particulars: IC50 calculated from the 2 test compound concentrations sandwiching 50% ITK inhibitory rate
Structures can show the parent of a compound that is named as a salt.
Measured attribute: pIC50
Note: pIC50 values are expressed as the negative base-10 logarithm of concentration in M.

INSERT INTO assay_data (compound, measured_attribute, assay_result) VALUES
  ('CC1(C)CCc2c(-c3cc4ccc(N(CCO)C(=O)[C@H]5CC[C@@H](O)CC5)cc4[nH]3)n[nH]c2C1', 'pIC50', 8.70),
  ('CN(C(=O)[C@@H]1CCC(=O)N1C)c1ccc2cc(-c3n[nH]c4c3CCC(C)(C)C4)[nH]c2c1', 'pIC50', 8.52),
  ('C[C@@H](C(=O)N(C)c1ccc2cc(-c3n[nH]c4c3CCC(C)(C)C4)[nH]c2c1)N1CCOCC1 [Example 5, hydrochloride]', 'pIC50', 8.52),
  ('COCCN(C(=O)CN1CCOC(C)C1=O)c1ccc2cc(-c3n[nH]c4c3CCC(C)(C)C4)[nH]c2c1 (stereo not shown)', 'pIC50', 8.70),
  ('CO[C@H]1CC[C@H](C(=O)N(CCO)c2ccc3cc(-c4n[nH]c5c4CCC(C)(C)C5)[nH]c3c2)CC1', 'pIC50', 8.00);

Task: # return recorded pIC50 for entry CC(C)CN(C)C(=O)c1ccc2cc(-c3n[nH]c4c3CCC(C)(C)C4)[nH]c2c1
Result: 8.30

Task: Return reported pIC50. Input compound: CO[C@H](C)C(=O)N(C)c1ccc2cc(-c3n[nH]c4c3CCC(C)(C)C4)[nH]c2c1
Result: 8.52

====

Experimental system: hITK enzyme (FLAG-tagged full-length hITK) (Homo sapiens, UniProt Q08881)
Construct: strongly expressing FLAG-tagged full-length hITK in Sf9 cells; FLAG; made in house; host or cells: Sf9 insect cells (ITK); Escherichia coli (GST-SLP76 substrate)
Sequence (Q08881 1-620): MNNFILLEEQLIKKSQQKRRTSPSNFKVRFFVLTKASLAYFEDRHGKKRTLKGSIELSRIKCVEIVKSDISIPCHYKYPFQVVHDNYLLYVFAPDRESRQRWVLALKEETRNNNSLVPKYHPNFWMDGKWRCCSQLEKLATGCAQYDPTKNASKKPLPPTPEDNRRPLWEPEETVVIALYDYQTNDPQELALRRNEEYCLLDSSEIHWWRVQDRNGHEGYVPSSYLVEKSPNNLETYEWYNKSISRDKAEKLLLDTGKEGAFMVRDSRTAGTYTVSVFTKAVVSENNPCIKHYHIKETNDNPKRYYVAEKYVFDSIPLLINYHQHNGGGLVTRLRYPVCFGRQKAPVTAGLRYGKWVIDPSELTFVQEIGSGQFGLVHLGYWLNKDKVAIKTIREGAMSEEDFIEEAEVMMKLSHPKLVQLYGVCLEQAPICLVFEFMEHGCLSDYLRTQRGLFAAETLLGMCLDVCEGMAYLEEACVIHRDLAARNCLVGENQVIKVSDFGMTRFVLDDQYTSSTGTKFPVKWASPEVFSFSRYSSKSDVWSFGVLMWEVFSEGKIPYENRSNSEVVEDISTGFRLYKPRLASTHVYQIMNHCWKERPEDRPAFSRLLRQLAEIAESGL
Method notes: ITK inhibitory activity (HTRF kinase assay, biotinylated GST-SLP76 substrate)
Format: biochemical
Particulars: IC50 calculated from the 2 test compound concentrations sandwiching 50% ITK inhibitory rate
Measured attribute: IC50 (nM)
// return numeric value only (unit: nM, not printed)

Below, 4 molecules whose answers are already recorded.
INSERT INTO results (molecule, u, assay_result) VALUES
  ('CC1(C)CCc2c(-c3cc4ccc(N(CCO)C(=O)C5CCCCC5)cc4[nH]3)n[nH]c2C1', 'nM', 5),
  ('CCC(O)C(=O)N(C)c1ccc2cc(-c3n[nH]c4c3CCC(C)(C)C4)[nH]c2c1 (stereo not shown)', 'nM', 3),
  ('CC1COCCN1C(C)C(=O)N(C)c1ccc2cc(-c3n[nH]c4c3CCC(C)(C)C4)[nH]c2c1 (stereo not shown)', 'nM', 11),
  ('CO[C@H]1CC[C@@H](C(=O)N(C)CC(=O)N(C)c2ccc3cc(-c4n[nH]c5c4CCC(C)(C)C5)[nH]c3c2)CC1', 'nM', 2);

Task: Given CCN(C(=O)CC(C)(C)O)c1ccc2cc(-c3n[nH]c4c3CCC(C)(C)C4)[nH]c2c1 , respond with its IC50.
Result: 8

Task: Recall and state the measured IC50 for CN(C(=O)CCC1CCCCC1)c1ccc2cc(-c3n[nH]c4c3CCC(C)(C)C4)[nH]c2c1 .
Result: 48

Task: Consider the molecule CC(C(=O)N(C)c1ccc2cc(-c3n[nH]c4c3CCC(C)(C)C4)[nH]c2c1)N1C[C@@H](C)O[C@@H](C)C1 (stereo partly shown) . State its measured IC50.
Result: 5

====

IC50: recorded values
Experimental system: hITK enzyme (FLAG-tagged full-length hITK) (Homo sapiens)
Construct: strongly expressing FLAG-tagged full-length hITK in Sf9 cells; FLAG; made in house; host or cells: Sf9 insect cells (ITK); Escherichia coli (GST-SLP76 substrate)
Method notes: ITK inhibitory activity (HTRF kinase assay, biotinylated GST-SLP76 substrate)
Assay type: biochemical
Particulars: IC50 calculated from the 2 test compound concentrations sandwiching 50% ITK inhibitory rate
State just the number; it will be interpreted in nM.

Would you please look over these solved cases?
INSERT INTO measurements (compound, measured_attribute, assay_result) VALUES
  ('CN(C(=O)c1ccccc1)c1ccc2cc(-c3n[nH]c4c3CCC(C)(C)C4)[nH]c2c1 [Example 30]', 'IC50', 10),
  ('CO[C@H]1CCCN(CC(=O)N(C)c2ccc3cc(-c4n[nH]c5c4CCC(C)(C)C5)[nH]c3c2)C1 [Example 114]', 'IC50', 5),
  ('CC(NCCO)C(=O)N(C)c1ccc2cc(-c3n[nH]c4c3CCC(C)(C)C4)[nH]c2c1 (stereo not shown) [Example 376]', 'IC50', 2);

Task: Answer with the recorded IC50 for the compound listed here: CC(C(=O)N(C)c1ccc2cc(-c3n[nH]c4c3CCC(C)(C)C4)[nH]c2c1)N1CCOCC1 (stereo not shown) [Example 104]
Result: 4

Task: Recall and state the measured IC50 for CC1(C)CCc2c(-c3cc4cc(C(=O)N5CCC(O)CC5)ccc4[nH]3)n[nH]c2C1 [Example 302] .
Result: 39

Task: Identify measured IC50 associated with COCCN(C(=O)CN1CCCCC1=O)c1ccc2cc(-c3n[nH]c4c3CCC(C)(C)C4)[nH]c2c1 [Example 287]
Result: 1

Task: Supply measured IC50 of CC1(C)CCc2c(-c3cc4ccc(N(CCO)C(=O)C5CCCC5)cc4[nH]3)n[nH]c2C1 [Example 231] in your reply.
Result: 2

Task: Quickly give me recorded IC50 for COCC(C)N(C)C(=O)c1ccc2cc(-c3n[nH]c4c3CCC(C)(C)C4)[nH]c2c1 (stereo not shown) [Example 22]
Result: 40

====

Experimental system: hITK enzyme (FLAG-tagged full-length hITK) (Homo sapiens, UniProt Q08881)
Construct: strongly expressing FLAG-tagged full-length hITK in Sf9 cells; FLAG; made in house; host or cells: Sf9 insect cells (ITK); Escherichia coli (GST-SLP76 substrate)
Method notes: ITK inhibitory activity (HTRF kinase assay, biotinylated GST-SLP76 substrate)
Assay type: biochemical
Particulars: IC50 calculated from the 2 test compound concentrations sandwiching 50% ITK inhibitory rate
pIC50: −log10 of the molar value.
Would you mind labelling by pIC50? At or over 8 is T, under is F.

Here's what some known entries look like.
INSERT INTO assay_data (compound, answer_label) VALUES
  ('CCC(=O)N(C)c1ccc2cc(-c3n[nH]c4c3CCC(C)(C)C4)[nH]c2c1 [Example 70]', 'T'),
  ('CC1(C)CCc2c(-c3cc4cc(C(=O)N5CCN(C(=O)OC(C)(C)C)CC5)ccc4[nH]3)n[nH]c2C1', 'F'),
  ('CN(C(=O)C(C)(C)COCc1ccccc1)c1ccc2cc(-c3n[nH]c4c3CCC(C)(C)C4)[nH]c2c1', 'F');

Task: Hi team, for CC(C)CNC(=O)c1ccc2cc(-c3n[nH]c4c3CCC(C)(C)C4)[nH]c2c1 , is the recorded pIC50 at or above 8?
Result: F

Task: Form field: pIC50 at least 8? Entry: C[C@@H]1CN(CC(=O)N(C)c2ccc3cc(-c4n[nH]c5c4CCC(C)(C)C5)[nH]c3c2)C[C@H](C)O1
Result: T

Task: Entry CC(C(=O)N(C)c1ccc2cc(-c3n[nH]c4c3CCC(C)(C)C4)[nH]c2c1)N(C)C(=O)OC(C)(C)C (stereo not drawn) : is its pIC50 no less than 8?
Result: F

Task: Confirm if pIC50 reported for the compound CN(C(=O)C1CCC(=O)N1)c1ccc2cc(-c3n[nH]c4c3CCC(C)(C)C4)[nH]c2c1 (stereo not drawn) is 8 or above.
Result: T

Task: Please check the record CC(C)CC(=O)N(C)c1ccc2[nH]c(-c3n[nH]c4c3CCC(C)(C)C4)cc2c1 and state if its pIC50 is at or above 8.
Result: F
